- System: MCF7 (ARE/MMP)
- Test Conditions: against baseline cytotoxicity, MMP readout
What Toxic ratio (TR) TRMMP was measured for each of the following?

Would you kindly share the measured Toxic ratio (TR) TRMMP for CC(C)c1cc(C(C)(C)c2ccc(O)c(C(C)C)c2)ccc1O [BPG] ?
0.61

Would you kindly share the measured Toxic ratio (TR) TRMMP for O=C(OCc1ccccc1)c1ccc(O)cc1 [BzPB, Benzyl 4-hydroxybenzoate] ?
0.11

Would you kindly share the measured Toxic ratio (TR) TRMMP for CC(C)Oc1ccc(S(=O)(=O)c2ccc(O)cc2)cc1 [D8, 4-((4-Isopropoxyphenyl)sulfonyl)phenol] ?
0.06

Would you kindly share the measured Toxic ratio (TR) TRMMP for CC(C)(c1ccc(O)c(-c2ccccc2)c1)c1ccc(O)c(-c2ccccc2)c1 [BPPH, 2,2-Bis(2-hydroxy-5-biphenylyl)propane] ?
0.53

Would you kindly share the measured Toxic ratio (TR) TRMMP for Cc1cc(Cc2cc(C)c(O)c(C)c2)cc(C)c1O [TMBPF, Bis(3,5-dimethyl-4-hydroxyphenyl)methane] ?
0.95

Would you kindly share the measured Toxic ratio (TR) TRMMP for CCC(C)(c1ccc(O)cc1)c1ccc(O)cc1 [BPB, 4,4'-(Butane-2,2-diyl)diphenol] ?
0.62

Would you kindly share the measured Toxic ratio (TR) TRMMP for CC(C)(c1ccc(OCC2CO2)cc1)c1ccc(OCC2CO2)cc1 (centres unmarked) [BADGE, Bisphenol A diglycidyl ether] ?
0.30

Would you kindly share the measured Toxic ratio (TR) TRMMP for O=S(=O)(c1ccc(O)cc1)c1ccc(OCc2ccccc2)cc1 [BPS-MPE, 4-[4-(benzyloxy)benzenesulfonyl]phenol] ?
0.29

---

What pKa (Acid) was measured for each of the following?
- Method Notes: physchem
Form: value (number only, do not type unit).

Would you kindly share the measured pKa (Acid) for O=S(=O)(c1ccc(O)cc1)c1ccccc1O [2,4-BPS, 2,4'-Dihydroxydiphenyl sulfone] ?
8.43

Would you kindly share the measured pKa (Acid) for Oc1ccc(C(c2ccc(O)cc2)(C(F)(F)F)C(F)(F)F)cc1 [BPAF] ?
8.73

Would you kindly share the measured pKa (Acid) for CC(c1ccccc1)(c1ccc(O)cc1)c1ccc(O)cc1 [BPAP, 4,4'-(1-Phenylethylidene)bisphenol] ?
9.99

Would you kindly share the measured pKa (Acid) for CCC(C)(c1ccc(O)cc1)c1ccc(O)cc1 [BPB, 4,4'-(Butane-2,2-diyl)diphenol] ?
10.33

Would you kindly share the measured pKa (Acid) for CC(C)(c1cc(Cl)c(O)c(Cl)c1)c1cc(Cl)c(O)c(Cl)c1 [TCBPA, 2,2',6,6'-Tetrachlorobisphenol A] ?
8.13

Would you kindly share the measured pKa (Acid) for O=S(=O)(c1ccc(O)cc1)c1ccc(O)cc1 [BPS, 4,4'-Sulfonyldiphenol] ?
8.16

Would you kindly share the measured pKa (Acid) for Oc1ccc(Cc2ccc(O)cc2)cc1 [BPF, Bis(4-hydroxyphenyl)methane] ?
10.27

Would you kindly share the measured pKa (Acid) for CC(c1ccc(O)cc1)c1ccc(O)cc1 [BPE, 4,4′-Ethylidenbisphenol] ?
9.99

Would you kindly share the measured pKa (Acid) for CC(C)(c1ccc(O)cc1)c1ccc(O)cc1 [BPA, 4,4'-(Propane-2,2-diyl)diphenol, reference compound] ?
9.85

---

What EC10, linear was measured for each of the following?
- Assayed System: Estrogen Receptor ERα (Homo sapiens, UniProt P03372)
- Sequence (P03372 311-547 limits assumed): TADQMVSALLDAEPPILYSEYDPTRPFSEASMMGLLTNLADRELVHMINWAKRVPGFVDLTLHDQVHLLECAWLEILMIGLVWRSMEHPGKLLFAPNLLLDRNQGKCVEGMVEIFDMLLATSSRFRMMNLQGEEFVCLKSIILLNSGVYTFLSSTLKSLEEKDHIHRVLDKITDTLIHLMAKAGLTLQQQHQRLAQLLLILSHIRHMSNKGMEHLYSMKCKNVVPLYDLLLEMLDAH
- Method Notes: cell-based
- Test Conditions: Bioassay ERα; dosing range high; linear model fit; in M
Form: value (number only, do not type unit).

Would you kindly share the measured EC10, linear for CCC(C)(c1ccc(O)cc1)c1ccc(O)cc1 ?
8.29E-08

Would you kindly share the measured EC10, linear for O=S(=O)(c1ccc(O)cc1)c1ccc(O)cc1 ?
1.20E-06

Would you kindly share the measured EC10, linear for COC(=O)C(c1ccc(O)cc1)c1ccc(O)cc1 [Bz, Methyl bis(4-hydroxyphenyl)acetate] ?
7.84E-07

Would you kindly share the measured EC10, linear for CC(C)(c1ccc(O)cc1)c1ccc(O)cc1 [BPA, 4,4'-(Propane-2,2-diyl)diphenol, reference compound] ?
1.81E-07
